Test system: HCT-15
Parameter GI50: see the listing below.

compound: CC(C)(C)OC(=O)NC(Cc1ccc(OC(C)(C)C)cc1)C(=O)N[C@H]1CC[C@H](C(=O)O)C1 (some centres not stated)
GI50: > 100 µM
--
compound: COC(=O)c1c(-c2ccccc2)sc(-c2cccc3ccccc23)c1C(=O)OC
GI50: > 100 µM
--
compound: CCOP(=O)(OCC)/C(C#N)=C\c1ccc(OC(C)=O)cc1
GI50: > 100 µM
--
compound: CC(=O)NNc1nc(C)c(C(/C=C/c2cccc([N+](=O)[O-])c2)=N/NC(=S)NN)s1
GI50: > 100 µM
--
compound: COc1ccc(OC)c(NC(=O)C2=C(C)NC(C)=C(C(=O)Nc3cc(OC)ccc3OC)C2c2ccco2)c1
GI50: > 100 µM
--
compound: Cc1c(O)c(=O)ccn1CCO
GI50: > 100 µM
--
compound: CC(=O)O[C@H]1CC[C@H]2[C@@H]3CC[C@H]4Nc5c(cnn5S(C)(=O)=O)C[C@]4(C)[C@H]3CC[C@]12C
GI50: > 100 µM
